Organism: Rattus norvegicus
Assay procedure: Open TG-GATES - Regimen: Single
Format: toxicity, organism-based, Sprague-Dawley
Design: regimen Single, gender Male, age 6 weeks
Conditions used: in vivo, po, 0 mg/kg, 9 h, tissue Blood, route gavage, dose level Control
Quantity name: WBC (x10_2/uL)

| Smiles representation | Quantitative readout |
| --- | --- |
| CN(C)CCCN1c2ccccc2CCc2ccccc21 | 76.7 |
| CC1=C(/C=C/C(C)=C/C=C/C(C)=C/CO)C(C)(C)CCC1 | 88.4 |
| COC1=CC(=O)C[C@@H](C)[C@]12Oc1c(Cl)c(OC)cc(OC)c1C2=O | 73.2 |

----------
Organism: Rattus norvegicus
Assay procedure: Open TG-GATES - Regimen: Single
Assay type: toxicity, organism-based, Sprague-Dawley
Parameters: regimen Single, gender Male, age 6 weeks
Conditions used: in vivo, po, 0 mg/kg, 6 h, tissue Blood, route gavage, dose level Control

| Molecule | Bas |
| --- | --- |
| CN1C(=O)CN=C(c2ccccc2)c2cc(Cl)ccc21 | 0% |
| CN(C)CCN(Cc1cccs1)c1ccccn1 | 0% |
| Cc1ccc(C)c(OCCCC(C)(C)C(=O)O)c1 | 0% |
| CCOC(=O)CCC(=O)O[C@H]1[C@H](O[C@@H]2[C@@H](C)[C@H](O[C@H]3C[C@@](C)(OC)[C@@H](O)[C@H](C)O3)[C@@H](C)C(=O)O[C@H](CC)[C@@](C)(O)[C@H](O)[C@@H](C)C(=O)[C@H](C)C[C@@]2(C)O)O[C@H](C)C[C@@H]1N(C)C [ERYTHROMYCIN ETHYLSUCCINATE] | 0% |
| COC1=CC(=O)C[C@@H](C)[C@]12Oc1c(Cl)c(OC)cc(OC)c1C2=O | 0% |
| CN(C)CCCN1c2ccccc2CCc2ccc(Cl)cc21 | 0% |
| CCOc1ccc(NC(=O)CC(C)O)cc1 (stereo unspecified) | 0.2% |
| CN(C)CCCN1c2ccccc2CCc2ccccc21 | 0.4% |
| CC/C(=C(\c1ccccc1)c1ccc(OCCN(C)C)cc1)c1ccccc1 | 0% |
| CC1=C(/C=C/C(C)=C/C=C/C(C)=C/CO)C(C)(C)CCC1 | 0% |
| CC(C)OC(=O)C(C)(C)Oc1ccc(C(=O)c2ccc(Cl)cc2)cc1 [FENOFIBRATE] | 0.4% |

----------
Species on record: Rattus norvegicus
Assay procedure: Open TG-GATES - Regimen: Single
Format: toxicity, organism-based, Sprague-Dawley
Parameters: regimen Single, gender Male, age 6 weeks
Conditions used: in vivo, po, 0 mg/kg, 6 h, tissue Plasma, route gavage, dose level Control
Each entry below carries its reported Na.

| Compound | Na |
| --- | --- |
| NC(N)=Nc1nc(CSCCC(N)=NS(N)(=O)=O)cs1 | 140 meq/L |
| NNC(=O)c1ccncc1 | 141.2 meq/L |
| CC/C(=C(\c1ccccc1)c1ccc(OCCN(C)C)cc1)c1ccccc1 | 142.2 meq/L |
| CCOC(=O)CCC(=O)O[C@H]1[C@H](O[C@@H]2[C@@H](C)[C@H](O[C@H]3C[C@@](C)(OC)[C@@H](O)[C@H](C)O3)[C@@H](C)C(=O)O[C@H](CC)[C@@](C)(O)[C@H](O)[C@@H](C)C(=O)[C@H](C)C[C@@]2(C)O)O[C@H](C)C[C@@H]1N(C)C [ERYTHROMYCIN ETHYLSUCCINATE] | 139.6 meq/L |
| Cc1ccc(C)c(OCCCC(C)(C)C(=O)O)c1 | 141.6 meq/L |
| COC1=CC(=O)C[C@@H](C)[C@]12Oc1c(Cl)c(OC)cc(OC)c1C2=O | 141.4 meq/L |
| C[C@@H]1C[C@H]2[C@@H]3CCC4=CC(=O)C=C[C@]4(C)[C@@]3(F)[C@@H](O)C[C@]2(C)[C@@]1(O)C(=O)CO | 140.2 meq/L |
| O=C(CCCN1CCC(O)(c2ccc(Cl)cc2)CC1)c1ccc(F)cc1 | 137.6 meq/L |
| CN(C)CCCN1c2ccccc2CCc2ccc(Cl)cc21 | 140.4 meq/L |
| CCCNC(=O)NS(=O)(=O)c1ccc(Cl)cc1 [CHLORPROPAMIDE] | 143 meq/L |

Source listed as ChEMBL document CHEMBL3885861.
